# System: PC-3
# measurement_notes: NCI tumour cell line growth inhibition, 48 h
Calls of active or inactive are those of the source. No stated cut-off is given here; in the data, active = GI50 up to about 1.1 µM and inactive = higher.
Thanks in advance; please answer with one of these: 1 (active), 0 (inactive)

O=C(O)c1cc(=O)c2c(OCC(O)COc3cccc4oc(C(=O)O)cc(=O)c34)cccc2o1
0
COc1ccc(-c2[nH]c(-c3ccc(OC)cc3)c(-c3ccccn3)c2-c2ccccn2)cc1
0
O=C(O)C1CCCCC1c1c2ccc(=O)c(O)c-2oc2c(O)c(O)ccc12 (stereo unspecified)
0
CN(C)CCn1c(=O)c2ccc(NCCN3CCNCC3)c3c(=O)c4ccccc4n(c1=O)c23
0
COc1ccc(NCc2cc(OC)c(OC)c(OC)c2)cc1
1

Hi, sorry to bother you, what did the test record for Cc1[nH]n(C2=NCCN2)c(=O)c1C ? 0
